// data source = patent US6972319B1

Each item that follows carries a reported R3 Selectivity.
Target: T1, PACAP-R3 (human, UniProt P41587 24-438)
T1 sequence (looked up): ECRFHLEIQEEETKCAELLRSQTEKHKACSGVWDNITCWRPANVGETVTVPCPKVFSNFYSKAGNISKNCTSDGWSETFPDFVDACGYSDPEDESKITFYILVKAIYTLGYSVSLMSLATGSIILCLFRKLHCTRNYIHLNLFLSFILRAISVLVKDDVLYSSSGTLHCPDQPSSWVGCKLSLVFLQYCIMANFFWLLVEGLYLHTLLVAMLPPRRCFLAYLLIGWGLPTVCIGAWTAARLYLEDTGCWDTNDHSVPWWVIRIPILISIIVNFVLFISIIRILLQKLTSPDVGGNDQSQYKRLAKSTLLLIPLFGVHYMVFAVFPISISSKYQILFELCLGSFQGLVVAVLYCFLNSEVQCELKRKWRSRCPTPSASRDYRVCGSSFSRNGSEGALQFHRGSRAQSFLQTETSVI
Test: cell-based or functional assay
No end group written: not given here.
Property label: R3 Selectivity (ratio)

{"Binder": "HSDAVFTDNYTRLRKQMAAKKYLNSIKNKP [R3P165]", "Observed": 300}
{"Binder": "HSDAVFTDNYTRLRKQMASKKYLNSIKNRI [rR3P178]", "Observed": 110}
{"Binder": "HSDAVFTDNYTRLRKQMASKKYLNSIQNRI [rR3P188]", "Observed": 70}
{"Binder": "HSDAVFTDNYTRLRKQMASKKYLNSIRNRI [rR3P193]", "Observed": 110}
{"Binder": "HSDAVFTDNYTRLRKQMAKKKYLNSIKNRI [rR3P176]", "Observed": 150}
{"Binder": "ESDGIFTDSYSRYRKQMAVKKYLAAVL-NH2 [PAC1]", "Observed": 97}
{"Binder": "HSDAVFTDNYTRLRKQMAGKKYLNSIQNRI [rR3P185]", "Observed": 40}
